Consider the following IC50 data for RAF proto-oncogene serine/threonine-protein kinase (Homo sapiens, UniProt P04049), collected from several reports.

Answered cases to consult:
[
  {
    "Item Smiles": "Cc1c[nH]c(-c2cnc3[nH]cc(C(=O)c4c(F)ccc(NS(=O)(=O)c5ccc(C(C)C)cc5)c4F)c3c2)n1",
    "Measured Attribute": "IC50",
    "Value Reported": "≤ 10 µM"
  },
  {
    "Item Smiles": "Cc1cnc2[nH]cc(C(=O)c3c(F)ccc(NS(=O)(=O)c4cccnc4)c3F)c2c1",
    "Measured Attribute": "IC50",
    "Value Reported": "< 0.01 µM"
  },
  {
    "Item Smiles": "CN(C)S(=O)(=O)Nc1ccc(F)c(C(=O)c2c[nH]c3ncccc23)c1F",
    "Measured Attribute": "IC50",
    "Value Reported": "≤ 10 µM"
  },
  {
    "Item Smiles": "Fc1ccc(Nc2ccnc3[nH]ccc23)cc1",
    "Measured Attribute": "IC50",
    "Value Reported": "≤ 10 µM"
  },
  {
    "Item Smiles": "O=C(Nc1cccc(C(=O)c2c[nH]c3ncc(Cl)cc23)c1)Nc1ccc(C(F)(F)F)cc1Cl",
    "Measured Attribute": "IC50",
    "Value Reported": "≤ 10 µM"
  }
]

What is its IC50 for RAF proto-oncogene serine/threonine-protein kinase (Homo sapiens, UniProt P04049)? Entry: `COc1ccnc2[nH]cc(C(=O)c3c(F)ccc(NS(=O)(=O)CC(C)C)c3F)c12`
≤ 10 µM

Form: Entry = `COc1ccnc2[nH]cc(C(=O)c3c(F)ccc(NS(=O)(=O)c4c(F)cccc4F)c3F)c12` | System = RAF proto-oncogene serine/threonine-protein kinase (Homo sapiens, UniProt P04049) | IC50 = ____
< 0.1 µM

Entry `COc1ccnc2[nH]cc(C(=O)c3c(F)ccc(NS(=O)(=O)N4CCOCC4)c3F)c12` , system RAF proto-oncogene serine/threonine-protein kinase (Homo sapiens, UniProt P04049): what IC50 was measured?
≤ 10 µM

---

pIC50: −log10 of the molar value.
Ok so here's the combined literature set: pIC50 for RAF proto-oncogene serine/threonine-protein kinase (Homo sapiens, UniProt P04049).

The following molecules have reported results that may help.
[
  {
    "Molecule": "CCCS(=O)(=O)Nc1ccc(F)c(C(O)c2c[nH]c3ncc(N4CCOCC4)cc23)c1F (stereo not shown)",
    "pIC50": "≥ 5.00"
  },
  {
    "Molecule": "COC(c1ccc(NCc2ccc(Cl)cc2)nc1)c1c[nH]c2ncccc12 (stereo not shown)",
    "pIC50": "≥ 5.00"
  }
]

Form field - read-out: pIC50; system: RAF proto-oncogene serine/threonine-protein kinase (Homo sapiens, UniProt P04049); submitted item: `O=C(c1c(F)ccc(NS(=O)(=O)CCC(F)(F)F)c1F)c1c[nH]c2ncc(Cl)cc12`
≥ 5.00

For RAF proto-oncogene serine/threonine-protein kinase (Homo sapiens, UniProt P04049), provide pIC50 of `CCCS(=O)(=O)Nc1ccc(F)c(C(=O)c2c[nH]c3ncc(-c4ccc(S(=O)(=O)NC5CC5)cc4)cc23)c1F` please.
≥ 5.00

What is its pIC50 for RAF proto-oncogene serine/threonine-protein kinase (Homo sapiens, UniProt P04049)? Entry: `CN(C)S(=O)(=O)Nc1ccc(F)c(C(=O)c2c[nH]c3ncc(-c4ccccc4)cc23)c1F`
≥ 5.00

Give the reported pIC50 for `O=C(c1c(F)ccc(NS(=O)(=O)c2ccccn2)c1F)c1c[nH]c2ncc(Cl)cc12` (system: RAF proto-oncogene serine/threonine-protein kinase (Homo sapiens, UniProt P04049)).
≥ 5.00

Request - read-out pIC50 | tested on RAF proto-oncogene serine/threonine-protein kinase (Homo sapiens, UniProt P04049) | molecule `CCCS(=O)(=O)Nc1ccc(F)c(C(=O)c2c[nH]c3ncc(CN(CC)CC)cc23)c1F`
≥ 5.00

Form field - read-out: pIC50; system: RAF proto-oncogene serine/threonine-protein kinase (Homo sapiens, UniProt P04049); submitted item: `COc1ncc(-c2cnc3[nH]cc(C(=O)c4cccc(NS(=O)(=O)N(C)C)c4F)c3c2)cn1`
≥ 5.00

# get_value(readout= pIC50, system= RAF proto-oncogene serine/threonine-protein kinase (Homo sapiens, UniProt P04049)) for `COc1ncc(-c2cnc3[nH]cc(C(=O)c4c(F)ccc(NS(=O)(=O)c5c(F)cccc5F)c4F)c3c2)cn1`
≥ 5.00

Find pIC50 (RAF proto-oncogene serine/threonine-protein kinase (Homo sapiens, UniProt P04049)) for the entry `Cc1c(O)cccc1C(=O)c1c[nH]c2ncc(-c3cccnc3)cc12`
≥ 5.00

Param readout = pIC50; param system = RAF proto-oncogene serine/threonine-protein kinase (Homo sapiens, UniProt P04049); param query = `Cn1cc(S(=O)(=O)Nc2cccc(C(=O)c3c[nH]c4ncc(C#N)cc34)c2F)cn1` ; response: value
≥ 5.00

Record `CCCS(=O)(=O)Nc1ccc(Cl)c(C(=O)c2c[nH]c3ncc(-c4ccccc4)cc23)c1F` : what is its pIC50 with RAF proto-oncogene serine/threonine-protein kinase (Homo sapiens, UniProt P04049)?
≥ 5.00

Test system RAF proto-oncogene serine/threonine-protein kinase (Homo sapiens, UniProt P04049); read-out pIC50; what value for `CCCNC(=O)c1ccc(OC)c(C(=O)c2c[nH]c3ncc(-c4cccnc4)cc23)c1F` ?
≥ 5.00

Request - read-out pIC50 | tested on RAF proto-oncogene serine/threonine-protein kinase (Homo sapiens, UniProt P04049) | molecule `COc1ccc(S(=O)(=O)Nc2ccc(F)c(C(=O)c3c[nH]c4ncccc34)c2F)cc1`
≥ 5.00

Could you share what pIC50 was measured for `Cc1cnc(-c2cnc3[nH]cc(C(=O)c4c(F)ccc(NS(=O)(=O)c5ccc(C(F)(F)F)cc5)c4F)c3c2)[nH]1` , tested on RAF proto-oncogene serine/threonine-protein kinase (Homo sapiens, UniProt P04049)?
≥ 5.00

Missing value: pIC50, RAF proto-oncogene serine/threonine-protein kinase (Homo sapiens, UniProt P04049), entry `O=C(O)/C=C/c1cccc(-c2cnc3[nH]cc(C(=O)c4cc(O)ccc4F)c3c2)c1` . Fill in?
≥ 5.00
